Molecular target: Fibroblast growth factor 10 (Homo sapiens)
Experiment: FGF10 binders on small-molecule microarrays, primary screen, biochemical, small-molecule microarray, 635 nm fluorescence (AID 1102)
Conditions: FGF10 binding, fluorescence 635 nm, higher = more signal
ENDPOINT_LABEL: composite z-score
I'd appreciate a reply containing only the number, no unit.

COMPOUND: C=C(COC)/C(=C/C[C@@H](OC(=O)c1ccncc1)c1ccccc1OCCO)c1cc(C(=O)OC)ccc1OC
composite z-score: -0.0528

IN: Reported composite z-score, compound `Cc1ccc(S[C@]2(C(=O)NC(C)C)CC(=O)N(C(C)C)[C@@H]2c2ccc(CO)cc2I)cc1` : ____
OUT: -0.101

IN: Consider the compound shown here: `CN1C(=O)[C@@H]2[C@@H](CC(COc3ccccc3)=C([C@H](O)CCc3ccccc3)[C@@H]2CO)C1=O` What is its recorded composite z-score?
OUT: -0.0903

IN: Look up composite z-score for this compound: `[N-]=[N+]=NCc1ccccc1[C@H]1OC(c2ccc(OCCCO)cc2)=N[C@@]1(CCS(=O)(=O)c1ccccc1)C(=O)NCc1ccccc1`
OUT: 1.06

IN: Look up composite z-score: `C=CCNC(=O)[C@H]1[C@@H]2C(=O)O[C@@H](c3ccccc3)[C@@H](c3ccccc3)N2[C@@H](c2ccc(OCCO)cc2)[C@]12C(=O)N(C(=O)OCCOC)c1ccc(C#Cc3ccc(OC)cc3)cc12`
OUT: 0.866

IN: Fill blank: measured composite z-score of the compound COc1cc(NN2C(C(O)c3ccc(I)cc3)C=CC3C(=O)N(c4ccccc4)C(=O)C32)cc(OC)c1OC (configuration not stated) is ____.
OUT: 1.17

IN: Entry `COC(=O)[C@@]1(Cc2ccc(F)cc2)[C@H]2c3cc(C(=O)N(C)C)n(Cc4c(CO)[nH]cc(C)c4=O)c3C[C@H]2CN1C(=O)c1ccccc1` has what composite z-score?
OUT: 0.663
